# System: NCI-H522 lung
# testSummary: NCI-60 one-dose screen, 48 h (100 = growth as untreated, 0 = no growth, -100 = all killed)
# conditionsUsed: 10 µM unless noted
Compounds without any hit were thinned out: in the full panel of roughly 83,000, 20% have a hit.
Assignment: determine reported growth for the given compounds.
Answers are plain numbers, in %.

Use these answered entries as a reference point.
{"compound": "N#CC1=C(N)Oc2c(sc3c(Br)cccc23)C1c1ccc(F)cc1 (stereo not drawn)", "growth / %": -6.79}
{"compound": "CCOC(=O)c1cc(-c2ccc([N+](=O)[O-])cc2)n(-c2ccc(C(=O)O)c(O)c2)c1C", "growth / %": 9.5}
{"compound": "Cc1nnc(NC(=O)c2nc(S(=O)(=O)Cc3ccc(F)cc3)ncc2Cl)s1", "growth / %": -67.3}
{"compound": "CN(C)CCCC1(c2ccc(F)cc2)OCc2cc(-c3cccc4[nH]ccc34)ccc21 (stereo not drawn)", "growth / %": 28}

Record growth per entry; entries follow.
1. Cc1nc(-c2ccccc2)cc2c(O)c(C(=O)NN)[nH]c(=O)c12
2. C=C(C)[C@@H]1CC[C@]2(C(=O)N3CCN(C)CC3)CC[C@]3(C)[C@H](CC[C@@H]4[C@@]5(C)CC(=C/c6ccncc6)/C(=N/O)C(C)(C)[C@@H]5CC[C@]43C)[C@@H]12
3. CC1=Nc2cnc(Nc3ccc(OCCN4CCCCC4)cc3)nc2Nc2ccccc21
4. COc1cc(OC)cc(C2=C3CC[C@@H]4[C@H](CC[C@]5(C)C(=O)CC[C@@H]45)C3=CC3C(O)c4cccnc4N4C(=O)COC234)c1 (stereo partly drawn)

94.3
69
70.7
90.3
